# experiment: Rcp of ^99mTc-HMPAO after addition of a single stabiliser, two step process (Example 1)
# Type: physicochemical
# settings: additive added 2 minutes post-radiolabelling; amount as in table; n = 3 (*n = 1)
Measured Rcp 1 min from addition (%) of individual entries

{"molecule": "O=C1O[C@H]([C@@H](O)CO)C([O-])=C1O.[Na+] [Sodium ascorbate]", "Rcp 1 min from addition (%)": "90* %"}
{"molecule": "O=C(O)CCC(=O)O", "Rcp 1 min from addition (%)": "51* %"}
{"molecule": "O=P(O)(O)CP(=O)(O)O", "Rcp 1 min from addition (%)": "79* %"}
{"molecule": "O=C1O[C@H]([C@@H](O)CO)C(O)=C1O", "Rcp 1 min from addition (%)": "83* %"}
